Test: Potentiation of FR900098-induced antibacterial activity against Francisella novicida U112 assessed as FR900098 MIC after 48 hrs
Type: functional, Francisella tularensis subsp. novicida U112
Conditions: Francisella tularensis
measure: MIC (µg/mL)
Numeric answer only, unit µg/mL assumed.

In the examples that follow, each entry is paired with its recorded MIC.
CCCCCc1ccc(C2=NCCS2)cc1 = 1
CCCCCc1ccc(C2=NCCO2)cc1 = 4
c1ccc(C2=NCCO2)cc1 = 16
CCCCCCc1ccc(C(=O)OC)cc1 = 8
c1cc(C2=NCCO2)ccn1 = 16
CCCCCCc1ccc(-c2ncc[nH]2)cc1 = 32

## Task Need MIC of CCCCCCCCCc1ccc(C2=NCCO2)cc1 , thanks.
## Result 16

## Task Which MIC value is on record for CCCCCCCCCCc1ccc(C2=NCCO2)cc1 ?
## Result 16

## Task Which measured MIC value corresponds to CCCCCCc1ccc(C2=NCCN2)cc1 ?
## Result 16

## Task Please give the measured MIC for this molecule: CCCCCCc1ccc(C2=NCCS2)cc1
## Result 2

## Task Which MIC is reported for this molecule? CCc1ccc(C2=NCCO2)cc1
## Result 16

###

Catalogue of MIC readings, one per entry.
Assay: Antibacterial activity against Francisella novicida U112 after 48 hrs
Type: functional, Francisella tularensis subsp. novicida U112
Details: Francisella tularensis

Guide cases for MIC, answers given:
CN(C)c1ccc(C2=NCCO2)cc1 = > 200 µM
CC(=O)N(O)CCCP(=O)(O)O = 16 µg/mL
CCCCCCc1ccc(C2=NCCN2)cc1 = 100 µM
c1ccc(C2=NCCO2)cc1 = > 200 µM
CCCCCc1ccc(C2=NCCO2)cc1 = 200 µM
CCc1ccc(C2=NCCO2)cc1 = > 200 µM

## Task Need MIC, item CCCCCCc1ccc(C2=NCCCO2)cc1
## Result 50 µM

## Task // query MIC value for entry CCCCCc1ccc(-c2ncco2)cc1
## Result 200 µM

## Task Sample c1cc(C2=NCCO2)ccn1 — what was its MIC?
## Result > 200 µM

## Task Reported MIC for CCCCCCCCc1ccc(C2=NCCO2)cc1 : what is it?
## Result 200 µM

## Task Please look up its MIC: CCCCCc1ccc(C2=NCCS2)cc1
## Result 200 µM

## Task Item CCCCCCCCCCc1ccc(C2=NCCO2)cc1 has what recorded MIC?
## Result > 200 µM

## Task // lookup MIC for CCCCCCCc1ccc(C2=NCCO2)cc1
## Result 100 µM

## Task Fill in: MIC of CCCc1ccc(C2=NCCO2)cc1 is ___
## Result > 200 µM

###

Assay: Potentiation of FR900098-induced antibacterial activity against Francisella novicida U112 assessed as FR900098 MIC after 48 hrs
Type: functional, Francisella tularensis subsp. novicida U112
Settings: Francisella tularensis
measure: log10 of MIC (log10 of the value in µg/mL)
Scale: decimal log of MIC, MIC in µg/mL.

Please review the following examples before continuing.
CCCCCCc1ccc(C2OCCO2)cc1 = 1.20
CCCc1ccc(C2=NCCO2)cc1 = 1.20
c1ccc(/N=N/c2ccc(C3=NCCO3)cc2)cc1 = 1.20
Fc1cc(C2=NCCO2)cc(F)c1F = 1.20
CCCCCCc1ccc(-c2c[nH]c(N)n2)cc1 = 1.51

## Task GET /values?readout=log10 of MIC&item= Cc1ccc(C2=NCCO2)cc1
## Result 1.20

## Task Can you look up the measured log10 of MIC of CCCCCCCc1ccc(C2=NCCO2)cc1 for me?
## Result 0.30

## Task Please look up its log10 of MIC: CN(C)c1ccc(C2=NCCO2)cc1
## Result 1.20

## Task Report log10 of MIC for CCCCCCc1ccc(C2=NCCCO2)cc1 please.
## Result 0.60

## Task Given the compound C(=C\c1ccccc1)/C1=NCCO1 , what is its reported log10 of MIC?
## Result 1.51

## Task Requested read-out: log10 of MIC. Entry: CCCCCCc1ccc(C2SCCS2)cc1
## Result 1.20

## Task Field request: log10 of MIC | item: CCCCCCc1ccc(-c2ccncc2)cc1
## Result -0.30

## Task Look up log10 of MIC: c1ccc2cc(C3=NCCO3)ccc2c1
## Result 1.20

## Task # log10 of MIC lookup, item CCCCCCCCc1ccc(C2=NCCO2)cc1
## Result 0.30

## Task # input compound: CCCCCCc1ccc(-c2cncnc2)cc1 ; wanted: its log10 of MIC
## Result 0.60

###

Listed here are molecules together with their documented MIC.
Assay: Potentiation of FR900098-induced antibacterial activity against Francisella novicida U112 assessed as FR900098 MIC after 48 hrs
Type: functional, Francisella tularensis subsp. novicida U112
Settings: Francisella tularensis
Supply the numeric figure in µg/mL, leaving out any unit text.

# annotated cases, reported MIC shown
Fc1cc(C2=NCCO2)ccc1C(F)(F)F = 16
CCCCCc1ccc(-c2ncco2)cc1 = 16
CCCCc1ccc(C2=NCCO2)cc1 = 4

## Task If you can, please state the reported MIC value of Brc1cccc(C2=NCCO2)c1 .
## Result 16

## Task # query: MIC of entry CCCCCCc1ccc(-c2ncco2)cc1
## Result 16

###

Measured MIC values are reported for all entries that follow.
Assay: Antibacterial activity against Francisella novicida U112 after 48 hrs
Assay type: functional, Francisella tularensis subsp. novicida U112
Settings: Francisella tularensis

Field: example entries. Status: answers known.
CCCCc1ccc(C2=NCCO2)cc1 = > 200 µM
CCCCCCc1ccc(C2=NCCS2)cc1 = > 200 µM
CCCCCCc1ccc(-c2ncc[nH]2)cc1 = 12.5 µM
CCCCCCc1ccc(-c2c[nH]c(N)n2)cc1 = 12.5 µM
Cc1ccc(C2=NCCO2)cc1 = > 200 µM
CCCCCCc1ccc(-c2ncco2)cc1 = > 200 µM
Fc1cc(C2=NCCO2)cc(F)c1F = > 200 µM
Fc1cc(C2=NCCO2)ccc1C(F)(F)F = > 200 µM
CCCCCCc1ccc(-c2cncnc2)cc1 = 100 µM
CCCCCCc1ccc(C2SCCS2)cc1 = > 200 µM

## Task Name the recorded MIC for CCCCCCc1ccc(C(=O)OC)cc1 .
## Result 200 µM

## Task # get_value(readout='MIC', item= c1ccc2cc(C3=NCCO3)ccc2c1 )
## Result 100 µM

## Task For the molecule shown here, Brc1cccc(C2=NCCO2)c1 , give the reported MIC.
## Result > 200 µM

## Task // lookup MIC for CCCCCCc1ccc(C2=NCCO2)cc1
## Result > 200 µM

## Task I have this molecule here, CCCCCCc1ccc(C2OCCO2)cc1 , and I need its recorded MIC.
## Result > 200 µM

###

Assay: Antibacterial activity against Francisella novicida U112 after 48 hrs
Assay type: functional, Francisella tularensis subsp. novicida U112
Details: Francisella tularensis
// values below are reported MIC

CCCCCCCCCc1ccc(C2=NCCO2)cc1 = > 200 µM
CCCCCCc1ccc(-c2ccncc2)cc1 = 100 µM
c1ccc(/N=N/c2ccc(C3=NCCO3)cc2)cc1 = > 200 µM

Now turn to the next compound.
## Task Requested read-out: MIC. Entry: C(=C\c1ccccc1)/C1=NCCO1
## Result > 200 µM

Provenance of the data: ChEMBL document CHEMBL3992489
